Where these numbers come from: ChEMBL document CHEMBL1201862

Test system: SNB-75
assay-name: NCI tumour cell line growth inhibition, 48 h
Calls of active or inactive are those of the source. No stated cut-off is given here; in the data, active = GI50 up to about 1.1 µM and inactive = higher. Square brackets hold non-standard residues; d marks the D form. Peptide text beside a SMILES is read from it. * marks the point of attachment. NMeV = CN[C@H](C(=O)O)C(C)C; X28 = COc1ccc(CN*)c(OC)c1; Octanoyl = CCCCCCCC(=O)*; dNMeA = CN[C@H](C)C(=O)O
reported-metric: GI50

Known results for compounds:
| compound | reported |
| --- | --- |
| Oc1cc(Br)cc2cc(Cl)cnc12 | 8.2 µM (inactive) |
| Cc1cc2c(=Cc3ccc(N(C)C)cc3)c3ccccc3n2[n+]1C | 0.409 µM (active) |

Look up GI50 for the entries below, preserving their order.
1. O=C1C(CO)=C[C@@H](O)[C@H]2O[C@@H]12
2. [O-][S+]1c2ccccc2N=C(c2ccc3ccccc3c2)CC1c1ccccc1 (stereo not given)
3. O=C(NNc1nc(-c2ccccc2)cs1)Nc1ccccc1
4. CCOC(=O)[C@H]1Nc2ccc(Cl)cc2[C@H]2CCC[C@@H]12

["37.4 µM (inactive)", "17.1 µM (inactive)", "23.2 µM (inactive)", "72.3 µM (inactive)"]

Look up GI50 for the entries below, preserving their order.
1. COc1ccc2c3c1O[C@H]1C[C@@H](O)C=C[C@@]31CCN(C)C2
2. COc1ccccc1N1C(=O)CSC1c1cc(OC)c(OC)c(OC)c1 (stereo not given)
3. CC[C@@]1(O)C(=O)OCc2c1cc1n(c2=O)Cc2c-1nc1ccccc1c2/C=N\NC(=O)CN
4. COc1nc2nccc-2c2occn12
5. CCCCCCCC(=O)N[C@H](C(=O)N[C@H](C(=O)N(C)[C@H](C(=O)N1CCC[C@H]1C(=O)N(C)[C@H](C)C(=O)NCc1ccc(OC)cc1OC)C(C)C)C(C)C)C(C)C (Octanoyl-VV[NMeV]P[dNMeA]-X28)
6. CN1CCN(c2ccc3[nH]c(-c4ccc5[nH]c(CCCc6ccc(N(CCCl)CCCl)cc6)nc5c4)nc3c2)CC1

1. > 150 µM (inactive)
2. > 100 µM (inactive)
3. 0.133 µM (active)
4. > 100 µM (inactive)
5. 21.3 µM (inactive)
6. > 100 µM (inactive)

---

Give GI50 for every item shown.
Test system: NCI/ADR-RES
assay-name: NCI tumour cell line growth inhibition, 48 h
The source made the active and inactive calls. No stated cut-off is given here; in the data, active = GI50 up to about 1.1 µM and inactive = higher.

Known results for compounds:
| compound | GI50 |
| --- | --- |
| CCCCNC1CCC2(SCCS2)c2[nH]c3ccccc3c21 (stereo not given) | 21.6 µM (inactive) |
| CC(=O)OC1[C@@H](OC(C)=O)CN(OCc2ccccc2)C[C@H]1OC(C)=O (stereo not given in full) | > 100 µM (inactive) |
| O=C(C/C(=N/O)C(=O)NC1=C(Cl)C(=O)c2ccccc2C1=O)CC(c1ccccc1)c1c(O)c2ccccc2oc1=O (stereo not given) | 11.2 µM (inactive) |
| COc1cc2c(SCCN(C)C)nc3ccccc3c2c2ccccc12 | 5.38 µM (inactive) |

API: the following record is the query input.
Per the record, Cc1cc(/N=C/c2ccc(Cl)cc2)n(-c2ccccc2)n1 has GI50 of 40.9 µM (inactive)

---

System: SK-MEL-28
assay-name: NCI tumour cell line growth inhibition, 48 h
Calls of active or inactive are those of the source. Cut-off read from the data, not from the text of the source: active = GI50 up to about 1.1 µM and inactive = higher.
Give GI50 for every item shown.

Known results for compounds:
| compound | experimental-target | GI50 |
| --- | --- | --- |
| CC12OC(=O)C(C#N)C1(C)C1C(=O)CCCC12 (stereo unspecified) | SK-MEL-28 | > 100 µM (inactive) |
| Cc1cc2c(=Cc3ccc(N(C)C)cc3)c3ccccc3n2[n+]1C | SK-MEL-28 | 1.2 µM (inactive) |
| COc1ccc(CNc2cnc3cc(N)ccc3n2)cc1OC | SK-MEL-28 | > 100 µM (inactive) |
| Clc1nc(Cl)c(Cc2ccccc2)c(Cl)n1 | SK-MEL-28 | 10.5 µM (inactive) |
| CC(=O)NC1C(OCc2ccccc2)OC(CO)C(O)C1OCC(=O)NC(C)C(=O)NC(CCC(=O)Nc1ccc2c(c1)CN1C(=O)c3ccccc3C1=N2)C(N)=O (stereo unspecified) | SK-MEL-28 | > 100 µM (inactive) |
| Cc1c2ccncc2c(C)c2c1[nH]c1ccc(Oc3ccccc3)cc12 | SK-MEL-28 | 3.09 µM (inactive) |

Look up GI50 for the entries below, preserving their order.
1. O=C(Nc1ccc(Cl)cc1)[C-](C(=O)c1ccc(Br)cc1)[n+]1cccc(-c2ccc(Cl)cc2)n1
2. O=c1ncc(F)cn1C1OC(CO)C(O)C1O (stereo unspecified)
3. Cc1nc2c(cc1C(=O)N/N=C/c1ccc([N+](=O)[O-])cc1)c(=O)n(C)c(=O)n2C
4. COc1ccc(-n2sc3ncc(C)cc3c2=O)cc1
5. COC(=O)C(Cc1cn(C(C)=O)c2ccccc12)P(=O)(OC)OC (stereo unspecified)
6. O=C(O)CP(=O)(O)O
7. CCOC(=O)Cn1nc2ccc(Nc3nc4ccccc4nc3C(=O)OCC)cc2n1

1. 8.77 µM (inactive)
2. > 45.6 µM (inactive)
3. > 100 µM (inactive)
4. 24.2 µM (inactive)
5. > 100 µM (inactive)
6. > 100 µM (inactive)
7. > 100 µM (inactive)

Look up GI50 for the entries below, preserving their order.
1. Cc1ccc(/C=C2/N/C(=N\N=C/C(O)C(O)C(O)CO)NC2=O)cc1 (stereo unspecified)
2. Cc1c(/C=N/NC(=O)c2cc(Br)cc(Br)c2O)c(=O)n(-c2ccccc2)n1C
3. C=CCNC(=S)N/C=C(\C(=O)OCC)C(=O)C(=O)OCC
4. C/C(=N\N=C(\N)S)c1ccc(Oc2ccccc2)cc1

["> 100 µM (inactive)", "20.8 µM (inactive)", "> 100 µM (inactive)", "11.7 µM (inactive)"]
